Provenance of the data: the supplement of paper PMC12632987

system_under_test: MAP1LC3A, Q9H492
protocol_text: median log2 fold change of GCK-ALFA target abundance (FLAG IP / Myc IP barcode read proportion) (log2 ratio); each designed protein is fused to an ALFA-tag nanobody in HEK293 cells to bring the named protein to FLAG-tagged glucokinase (GCK); Myc marks an untargeted standard; higher = target protein stabilised (more abundant)
condition_summary: target protein: 3xFLAG-MCP-GCK-ALFA reporter; HEK293 landing pad (RPLP)
The full ranking holds about 2,300 sequences; the median of “median log2 fold change of GCK-ALFA target abundance (FLAG IP / Myc IP barcode read proportion)” is about 0.095, and the lowest 2% start at about -0.47. Shown is part of a subset that was picked to be rich in the lowest values.
Reported median log2 fold change values for a set of binders
experimental_endpoint: median log2 fold change

LC3A_free_26_2139 (protein) EKFVDIYLIDEAIDALEKAKELAKKIEGIGEKLVKLLEEALKLIEKETLESLEKAIKILKEIKELIEKDKTIDEETKKELLELVTKALEKVEEVVKIMKE: 0.132
LC3A_28_755 (protein) ADIEGTIKEAIERAKKAKEEGKEEVIEITVPAGATQADIDKVIEGMEEIAEINKDMKRTTILVNVEAGVAQENLDKLIDAGEEIEEKYPNVTVIFALDEE: -0.196
LC3A_28_724 (protein) NRLEASIAAALARARALAAAGESDVIEITIPGDATEEDIERVIEALEEIAAITADLPRTDIVINVEGGVKQEHIDRLADAAEAIEARYPNVTVIIALDEE: 0.154
LC3A_28_1202 (protein) SATKAAADAALAEAKALLAAGEEGVVELVVEGKITEEETQYVIDKLEEIAELAAKSGKISIVLDISGEVPEEHQQKLIDKADELEKKYPNVNIIVALEER: -0.206
